System: TRKB
Conditions: concentration: 1 μM, replicates: in singlicate; n = 1
measured endpoint: %Inh (%)
One number for each entry, in %.

Bench note: what %Inh did "Cc1cccc2c(-c3ccncn3)c(-c3ccc(F)cc3)nn12" show?
0

Bench note: what %Inh did "O=c1cc(N2CCOCC2)nc2n(Cc3ccccc3F)ccn12" show?
0

Bench note: what %Inh did "Fc1ccc(-c2nn3cccc(F)c3c2-c2ccncc2)cc1" show?
0

Hello, I would appreciate it if you could give %Inh for each entry below.
1. c1ccc(-c2ccnc3[nH]ccc23)cc1
2. CNc1nc(-c2ccc3c(N)n[nH]c3c2)cc(N2C[C@@H](C(=O)Nc3ccccc3)CC[C@H]2C)n1
3. O=C(Nc1n[nH]c2nc(-c3ccco3)c(Br)cc12)C1CCN(Cc2ccccc2)C1.O=C(O)[C@H](O)[C@@H](O)C(=O)O (stereo not drawn)

67
2
17

* * *

Test system: CAMK4
Conditions: concentration: 1 μM, replicates: in singlicate; n = 1
measured endpoint: %Inh (%)
One number for each entry, in %.

Consider the reported %Inh for these compounds:
Bench note: what %Inh did "CCc1ccc(-c2ccc3c(c2)-c2n[nH]cc2S(=O)(=O)N3C)cc1" show?
11

Bench note: what %Inh did O=C(Nc1n[nH]c2nc(-c3ccco3)c(Br)cc12)C1CCN(Cc2ccccc2)C1.O=C(O)[C@H](O)[C@@H](O)C(=O)O (stereo not drawn) [SB-742034] show?
0

Bench note: what %Inh did "COc1ccc(CSc2nnc(-c3ccc4c(c3)CCO4)o2)cc1" show?
0

Bench note: what %Inh did Cc1cccc2c(-c3ccncn3)c(-c3ccc(F)cc3)nn12 [GW515532] show?
0

Bench note: what %Inh did COc1cccc(NC(=O)Nc2ccc(C)c(-c3ccc(C(=O)Nc4ccncc4)cc3)c2)c1 [GSK1398474] show?
10

Hello, I would appreciate it if you could give %Inh for each entry below.
1. COC(=O)c1cccc(NC(=O)NC2CCN(c3ccnc(Nc4ccc(OC)cc4)n3)C2)c1 (stereo not drawn) [GSK1379746]
2. O=c1cc(N2CCOCC2)nc2n(Cc3ccccc3F)ccn12 [GSK2297428]
3. COC(=O)c1cccc(NC(=O)NC2CCN(c3ccnc(Nc4ccc(F)cc4)n3)C2)c1 (stereo not drawn) [GSK1379725]
4. Cc1nccc(-c2c(-c3ccc(F)cc3)ncn2CCCN2CCOCC2)n1.Cl [SB-282975]

0
0
0
6

* * *

Tested on: MAST1
Conditions: concentration: 1 μM, replicates: in singlicate; n = 1
measured endpoint: %Inh (%)
One number for each entry, in %.

Consider the reported %Inh for these molecules:
Bench note: what %Inh did Fc1ccc(-c2nc3n(c2-c2ccncc2)CCS3)cc1 [GI98581] show?
0

Bench note: what %Inh did CNc1cc(-c2ccc3c(N)n[nH]c3c2)nc(N)n1 [GSK2224810] show?
18

Bench note: what %Inh did Cc1cnc(N)c(/C=C/c2cncc(C(=O)NCCc3ccc(Cl)cc3Cl)c2)c1.Cl [GSK190937] show?
5

Bench note: what %Inh did COc1ccc(Nc2nccc(N3CCC(NC(=O)C(C)c4ccc(Cl)cc4)C3)n2)cc1 (stereo not drawn) [GSK1379735] show?
0

Bench note: what %Inh did COc1cccc(CNC(=O)NC2CCN(c3ccnc(Nc4ccc(F)cc4)n3)C2)c1 (stereo not drawn) [GSK1379723] show?
6

Hello, I would appreciate it if you could give %Inh for each entry below.
1. COC(=O)c1cccc(NC(=O)NC2CCN(c3ccnc(Nc4ccc(OC)cc4)n3)C2)c1 (stereo not drawn) [GSK1379746]
2. FC(F)(F)c1ccccc1-c1cc(-c2c[nH]nc2-c2ccccn2)ccn1 [GW679396]
3. CC(=O)c1c(C)c2cnc(Nc3ccc(N4CCNCC4)cn3)nc2n(C2CCCC2)c1=O
4. CCCCc1nn2ncccc2c1-c1ccnc(NC2CC2)n1 [GW684374]

1. 13
2. 4
3. 0
4. 0

* * *

System: PRKCI
Settings: concentration: 1 μM, replicates: in singlicate; n = 1
measured endpoint: %Inh (%)
Answers are plain numbers, in %.

Hello, I would appreciate it if you could give %Inh for each entry below.
1. COc1ccc(CSc2nnc(-c3ccc4ncsc4c3)o2)cc1C(F)(F)F
2. COc1ccc(Nc2nccc(N3CCC(NC(=O)C(C)c4ccc(Cl)cc4)CC3)n2)cc1 (stereo not shown)
3. Cl.Cl.Cl.N#Cc1ccc(CCNc2nccc(-c3cccc(CN4CCNCC4)c3)n2)cc1
4. CS(=O)(=O)CCNCc1nc(-c2ccc3ncnc(Nc4ccc(OCc5ccccc5)c(Cl)c4)c3c2)cs1.Cl

0
0
21
39

* * *

For each record, write down the corresponding %Inh.
Tested on: PHKG2
Conditions: concentration: 1 μM, replicates: in singlicate; n = 1
Give bare numbers, in %.

Consider the reported %Inh for these molecules:
Bench note: what %Inh did "CCc1ccc(-c2ccc3c(c2)-c2n[nH]cc2S(=O)(=O)N3C)cc1" show?
0

Bench note: what %Inh did "COc1cccc(C2=C(Nc3cc(Cl)c(O)c(Cl)c3)C(=O)NC2=O)c1" show?
0

Bench note: what %Inh did COc1cccc(CNC(=O)NC2CCN(c3ccnc(Nc4ccc(F)cc4)n3)C2)c1 (centres unmarked) show?
26

Hello, I would appreciate it if you could give %Inh for each entry below.
1. CCn1c(-c2ccccc2)nc2cnccc21
2. COc1ccc(Nc2nccc(N3CCC(NC(=O)C(C)c4ccc(Cl)cc4)CC3)n2)cc1 (centres unmarked)

0
16

* * *

Tested on: ERK1
Construct: gene MAPK3
Settings: concentration: 1 μM, replicates: in singlicate; n = 1
For each record, write down the corresponding %Inh.
Answers are plain numbers, in %.

Bench note: what %Inh did Cc1c(Cn2c3ccccc3n3c(=O)cc(N4CCOCC4)nc23)cccc1C(F)(F)F [GSK2306394] show?
36

Bench note: what %Inh did CCn1c(-c2ccccc2)nc2cnccc21 [SB-733416] show?
0

Bench note: what %Inh did CSc1ccc(-c2nc3n(c2-c2ccncc2)CCC3)cc1 [SKF-105561] show?
0

Bench note: what %Inh did Nc1ncnc2occ(-c3ccc4c(c3)CCN4C(=O)Cc3cc(F)ccc3F)c12 [GSK2645446] show?
0

Bench note: what %Inh did COC(=O)c1cccc(NC(=O)NC2CCN(c3ccnc(Nc4ccc(OC)cc4)n3)C2)c1 (stereo not shown) [GSK1379746] show?
0

Bench note: what %Inh did COC(=O)C(NC(=O)NC1CCN(c2ccnc(Nc3ccc(F)cc3)n2)C1)c1ccccc1 (stereo not shown) [GSK1379712] show?
2

Bench note: what %Inh did CCn1c(-c2c(N)noc2C)nc2cnccc21 [SB-737856] show?
0

Bench note: what %Inh did Cc1nccc(-c2c(-c3ccc(F)cc3)ncn2CCCN2CCOCC2)n1.Cl [SB-282975] show?
6

Bench note: what %Inh did O=C(Nc1n[nH]c2cc(-c3ccsc3)ccc12)C1CC1 [SB-732932] show?
0

Bench note: what %Inh did Cn1cncc1-c1cc2c(Nc3ccc(OCc4ccccc4)cc3)ncnc2cn1 [GW281179] show?
0

Hello, I would appreciate it if you could give %Inh for each entry below.
1. Cc1ccc(-c2nc(Nc3ccncc3)c3ccccc3n2)s1 [GSK189015]
2. CC(=O)c1c(C)c2cnc(Nc3ccn(C)n3)nc2n(C2CCCC2)c1=O

1: 17; 2: 0

Bench note: what %Inh did Nc1nccc(-c2c(-c3ccc(F)cc3)ncn2C2CCN(Cc3ccccc3)CC2)n1 [SB-219980] show?
0

* * *

Test system: RIOK1;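 also: kd values determined as follow-up on hits from a single-replicate KINOMEscan panel screen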
For each record, write down the corresponding Kd.
Numbers only, in nM.

Bench note: what Kd did "CC(C)c1cc(-c2ccc3c(N)n[nH]c3c2)nc(N)n1" show?
580

Bench note: what Kd did "CNc1cc(-c2ccc3c(N)n[nH]c3c2)nc(N)n1" show?
1100

Now consider the entry below.
Bench note: what Kd did "Nc1cccc(-c2ccc3c(N)n[nH]c3c2)n1" show?
390

* * *

For each record, write down the corresponding %Inh.
System: EPHA4
Conditions: concentration: 1 μM, replicates: in singlicate; n = 1
One number for each entry, in %.

Consider the reported %Inh for these compounds:
Bench note: what %Inh did COC(=O)c1cccc(NC(=O)NC2CCN(c3ccnc(Nc4ccc(OC)cc4)n3)C2)c1 (centres unmarked) [GSK1379746] show?
4

Bench note: what %Inh did O=C(Nc1n[nH]c2nc(-c3cccs3)c(Br)cc12)C1CC1 [SB-735297] show?
1

Bench note: what %Inh did "CNC(=O)c1ccc(C)c(-n2c(C)cc(OCc3ccc(F)cc3F)c(Br)c2=O)c1" show?
0

Bench note: what %Inh did "COc1ccc(CSc2nnc(-c3ccc4nccn4c3)o2)cc1C(F)(F)F" show?
11

Bench note: what %Inh did Nc1nccc(-c2c(-c3ccc(F)cc3)ncn2C2CCN(Cc3ccccc3)CC2)n1 [SB-219980] show?
4

Hello, I would appreciate it if you could give %Inh for each entry below.
1. CCc1ccc(-c2ccc3c(c2)-c2n[nH]cc2S(=O)(=O)N3C)cc1
2. COc1cccc(CNC(=O)NC2CCN(c3ccnc(Nc4ccc(F)cc4)n3)C2)c1 (centres unmarked) [GSK1379723]
3. Fc1ccc(-c2nc[nH]c2-c2ccncc2)cc1 [SB-217360]

1. 0
2. 0
3. 4

Hello, I would appreciate it if you could give %Inh for each entry below.
1. CNc1nc(-c2ccc3c(N)n[nH]c3c2)cc(N2C[C@@H](C(=O)Nc3ccccc3)CC[C@H]2C)n1 [GSK2298859]
2. Cn1cnc2c(N)ncnc21 [SKF-97623]
3. COc1cc2ncnc(Nc3cccc(Br)c3)c2cc1OC.Cl [GI230329]
4. CCn1c(-c2ccccc2)nc2cnccc21 [SB-733416]
5. COc1ccc(Nc2nccc(N3CCC(NC(=O)C(C)c4ccc(Cl)cc4)C3)n2)cc1 (centres unmarked) [GSK1379735]
6. CC(=O)c1c(C)c2cnc(Nc3ccc(N4CCNCC4)cn3)nc2n(C2CCCC2)c1=O

1. 8
2. 0
3. 0
4. 24
5. 14
6. 0
